pIC50: −log10 of the molar value.
Below, pIC50 values reported for Apoptosis regulator Bcl-2 (Homo sapiens, UniProt P10415) across several publications.

{"molecule": "CN(C)CC[C@H](CSc1ccccc1)Nc1ccc(S(=O)(=O)Nc2ncnc3c2CCN(C2CCC(=Cc4ccccc4)CC2)C3)cc1S(=O)(=O)C(F)(F)F (stereo partly shown)", "limit_qualifier": "=", "pIC50": 5.93}
{"molecule": "CCCCN(CCCC)C(=O)c1cc(C)n(-c2ccc(NC(=O)C(CC(=O)OCC)c3ccccc3)cc2C(=O)N2Cc3ccccc3C[C@H]2CO)n1 (stereo partly shown)", "limit_qualifier": "=", "pIC50": 6.79}
{"molecule": "CCCCc1c(-c2ccc(C(=O)NS(=O)(=O)c3ccc4ccccc4c3)cc2C(=O)N2CCc3ccccc3C2)c(CO)nn1-c1ccc(Oc2cccc(Cl)c2)cc1", "limit_qualifier": "=", "pIC50": 8.11}
{"molecule": "C[C@H]1CC(N2CCc3c(ncnc3NS(=O)(=O)c3ccc(N[C@H](CCN(C)C)CSc4ccccc4)c(S(=O)(=O)C(F)(F)F)c3)C2)CCN1Cc1ccccc1-c1ccc(Cl)cc1 (mixture of isomers)", "limit_qualifier": "=", "pIC50": 7.66}
{"molecule": "CN(C)CC[C@H](CSc1ccccc1)Nc1ccc(S(=O)(=O)Nc2nc(C(F)(F)F)nc3c2CCN(C2CCN(Cc4ccccc4-c4ccc(Cl)cc4)CC2F)C3)cc1S(=O)(=O)C(F)(F)F (stereo partly shown)", "limit_qualifier": "=", "pIC50": 7.33}
{"molecule": "CNS(=O)(=O)c1cc(C(=O)N2CCc3ccc(S(=O)(=O)NCCc4ccccc4)cc3C2)c(O)c(O)c1O", "limit_qualifier": "<", "pIC50": 6.00}
{"molecule": "CCCCN(CCCC)C(=O)c1nn(-c2ccc(C(=O)NS(=O)(=O)c3ccc4c(N(C)C)ccc(Br)c4c3)cc2C(=O)N2CCc3ccccc3C2)c(C)c1Cl", "limit_qualifier": "=", "pIC50": 7.52}
{"molecule": "NS(=O)(=O)c1ccc(CCNS(=O)(=O)c2ccc3c(c2)CN(C(=O)c2cc(S(=O)(=O)N4CCc5ccccc5C4)c(O)c(O)c2O)CC3)cc1", "limit_qualifier": "≥", "pIC50": 6.00}
{"molecule": "CCCCN(CCCC)C(=O)c1nn(-c2ccc(C(=O)NS(=O)(=O)c3cc(Br)c4c(c3)CCN4CC)cc2C(=O)N2Cc3ccccc3C[C@H]2CO)c(C)c1Cl", "limit_qualifier": "=", "pIC50": 8.04}
{"molecule": "CC1(C)CN(CC2CCN(c3ccc(C(=O)NS(=O)(=O)c4ccc(NCC5CCOCC5)c([N+](=O)[O-])c4)c(Oc4cnc5[nH]ccc5c4)c3)CC2)Cc2ccccc21", "limit_qualifier": "<", "pIC50": 7.30}
{"molecule": "O=S(=O)(Nc1nc(C(F)(F)F)nc2c1CCN(C1CCN(Cc3ccccc3-c3ccc(Cl)cc3)CC1)C2)c1ccc(N[C@H](CCN2CCOCC2)CSc2ccccc2)c(S(=O)(=O)C(F)(F)F)c1", "limit_qualifier": "=", "pIC50": 6.63}
{"molecule": "[2H]C1(N2CCc3c(ncnc3NS(=O)(=O)c3ccc(N[C@H](CCN)CSc4ccccc4)c(S(=O)(=O)C(F)(F)F)c3)C2)CCN(Cc2cc(F)ccc2-c2ccc(Cl)cc2)CC1", "limit_qualifier": "=", "pIC50": 7.08}
{"molecule": "CC(C1=C(c2ccc(Cl)cc2)CC(C)(C)CC1)N1CCC(N2CCc3c(ncnc3NS(=O)(=O)c3ccc(N[C@H](CCN4CCOCC4)CSc4ccccc4)c(S(=O)(=O)C(F)(F)F)c3)C2)CC1 (stereo partly shown)", "limit_qualifier": "=", "pIC50": 7.05}
{"molecule": "CCCCN(CCCC)C(=O)c1cc(C)n(-c2ccc(NC(=O)C(CC(=O)OC)c3ccccc3)cc2C(=O)N2Cc3ccccc3C[C@H]2CO)n1 (stereo partly shown)", "limit_qualifier": "=", "pIC50": 6.92}
{"molecule": "CCCCN(CCCC)C(=O)c1nn(-c2ccc(C(=O)NS(=O)(=O)c3ccc4ccc(OC(C)C)cc4c3)cc2C(=O)N2CCc3ccccc3C2)c(C)c1Cl", "limit_qualifier": "=", "pIC50": 7.30}
